From: ChEMBL document CHEMBL3885881

Organism: Rattus norvegicus
Protocol Notes: DrugMatrix - Regimen: Daily Repeat
Assay type: toxicity, organism-based, Sprague-Dawley
Set-up: regimen Daily Repeat, gender Male, age 6-8 weeks
Condition: in vivo, po, 0 mg/kg, 120 h, tissue Blood, route oral GAVAGE, dose level Control, time 5 day, […]
Measure Name: HEMATOCRIT (%)

- CC(=O)Nc1ccc(O)cc1: 34.67
- COCCOC(=O)C1=C(C)NC(C)=C(C(=O)OC(C)C)C1c1cccc([N+](=O)[O-])c1 (configuration not stated): 36.22
- CCCCCCCCc1ccc(O)cc1: 36.97
- CC(C)(Oc1ccc(C2CCCc3ccccc32)cc1)C(=O)O (configuration not stated): 33.32
- O=NN(CCCl)C(=O)NCCCl: 34.67
- CC(C)Cc1ccc(C(C)C(=O)O)cc1 (configuration not stated): 32.5
- CC(=O)Nc1cccc(O)c1: 34.05
